Origin of the recorded values: ChEMBL document CHEMBL3046346

Tested on: Rattus norvegicus
Experiment: Anti-inflammatory activity in Rattus norvegicus (rat) assessed as inhibition of carrageenan-induced paw edema at 10 mg/kg, po measured at 1 hr
Format: functional
Tick Fulfilled if inhibition in vivo at 10 mg/kg is 40% or greater. Tick Not fulfilled if inhibition in vivo at 10 mg/kg is less than 40%.

Solved cases (8 shown):
INSERT INTO assay_data (molecule, label) VALUES
  ('COc1cccc(-n2c(N/N=C3/C(=O)Nc4ccccc43)nc3ccccc3c2=O)c1', 'Not fulfilled'),
  ('CCC/C(C)=N/Nc1nc2ccccc2c(=O)n1-c1cccc(OC)c1', 'Fulfilled'),
  ('COc1cccc(-n2c(N/N=C\c3ccccc3[N+](=O)[O-])nc3ccccc3c2=O)c1', 'Not fulfilled'),
  ('COc1cccc(-n2c(N/N=C\c3ccc(Cl)cc3)nc3ccccc3c2=O)c1', 'Not fulfilled'),
  ('COc1cccc(-n2c(N/N=C\c3ccc(C)cc3)nc3ccccc3c2=O)c1', 'Not fulfilled'),
  ('O=C([O-])Cc1ccccc1Nc1c(Cl)cccc1Cl.[Na+] [DICLOFENAC SODIUM]', 'Not fulfilled'),
  ('COc1ccc(/C=N\Nc2nc3ccccc3c(=O)n2-c2cccc(OC)c2)cc1', 'Not fulfilled'),
  ('COc1cccc(-n2c(N/N=C\c3ccc([N+](=O)[O-])cc3)nc3ccccc3c2=O)c1', 'Not fulfilled');

Req: Reported inhibition in vivo at 10 mg/kg at or above 40%? `COc1cccc(-n2c(N/N=C(\C)c3ccccc3)nc3ccccc3c2=O)c1`
Resp: Fulfilled

Req: Reported inhibition in vivo at 10 mg/kg at or above 40%? `COc1cccc(-n2c(N/N=C\c3ccccc3Cl)nc3ccccc3c2=O)c1`
Resp: Not fulfilled

Req: Reported inhibition in vivo at 10 mg/kg at or above 40%? `CC/C(C)=N/Nc1nc2ccccc2c(=O)n1-c1cccc(OC)c1`
Resp: Fulfilled

* * *

System: Rattus norvegicus
Experiment: Anti-inflammatory activity in Rattus norvegicus (rat) assessed as inhibition of carrageenan-induced paw edema at 10 mg/kg, po measured at 1 hr
Type: functional
Property: inhibition in vivo at 10 mg/kg (%)
Field: numeric (%). Do not append units.

Below are worked cases with known answers.
INSERT INTO assay_data (smiles_str, measured_target, reported) VALUES
  ('CCC(CC)=NNc1nc2ccccc2c(=O)n1-c1cccc(OC)c1', 'Rattus norvegicus', 48),
  ('COc1cccc(-n2c(NN=C(c3ccccc3)c3ccccc3)nc3ccccc3c2=O)c1', 'Rattus norvegicus', 38),
  ('COc1cccc(-n2c(NN=C3CCCCC3)nc3ccccc3c2=O)c1', 'Rattus norvegicus', 40);

Req: Given the molecule `COc1cccc(-n2c(N/N=C\c3ccccc3)nc3ccccc3c2=O)c1` , what is its reported inhibition in vivo at 10 mg/kg?
Resp: 38

Req: Given the molecule `COc1cccc(-n2c(N/N=C\c3ccccc3C)nc3ccccc3c2=O)c1` , what is its reported inhibition in vivo at 10 mg/kg?
Resp: 41

* * *

Tested on: Mus musculus
Experiment: […] activity in Mus musculus Wistar albino (mouse) at 10 mg/kg, po after 30 min by tail-flick test
Format: functional
Label t when Activity is strictly below 40%; at or above that, label f.

Solved cases (10 shown):
INSERT INTO results (compound, label) VALUES
  ('O=C([O-])Cc1ccccc1Nc1c(Cl)cccc1Cl.[Na+] [DICLOFENAC SODIUM]', 't'),
  ('COc1cccc(-n2c(N/N=C\c3ccc(Cl)cc3)nc3ccccc3c2=O)c1', 't'),
  ('CCC(CC)=NNc1nc2ccccc2c(=O)n1-c1cccc(OC)c1', 'f'),
  ('COc1cccc(-n2c(N/N=C\c3ccccc3[N+](=O)[O-])nc3ccccc3c2=O)c1', 't'),
  ('COc1cccc(-n2c(N/N=C\c3ccccc3Cl)nc3ccccc3c2=O)c1', 't'),
  ('COc1cccc(-n2c(NN=C3CCCCC3)nc3ccccc3c2=O)c1', 'f'),
  ('COc1ccc(/C=N\Nc2nc3ccccc3c(=O)n2-c2cccc(OC)c2)cc1', 't'),
  ('COc1cccc(-n2c(N/N=C(\C)c3ccccc3)nc3ccccc3c2=O)c1', 'f'),
  ('COc1cccc(-n2c(N/N=C\c3ccc([N+](=O)[O-])cc3)nc3ccccc3c2=O)c1', 't'),
  ('CCC/C(C)=N/Nc1nc2ccccc2c(=O)n1-c1cccc(OC)c1', 'f');

Req: Activity under 40%? Item: `COc1cccc(-n2c(N/N=C\c3ccc(C)cc3)nc3ccccc3c2=O)c1`
Resp: f

Req: Activity under 40%? Item: `CC/C(C)=N/Nc1nc2ccccc2c(=O)n1-c1cccc(OC)c1`
Resp: f

* * *

System: Rattus norvegicus
Experiment: Gastrointestinal toxicity in fasted Rattus norvegicus Wistar albino (rat) assessed as ulcer index at 20 mg/kg, ip measured after 4 hr
Assay type: organism-based
Set-up: dose 20 mg/kg, route intraperitoneal
Experimental conditions: in vivo
Property: UI
Keep the answer to the number alone.

Below are worked cases with known answers.
INSERT INTO assay_data (compound, measured_target, reported) VALUES
  ('CC(=O)Oc1ccccc1C(=O)O', 'Rattus norvegicus', 1.73),
  ('CC/C(C)=N/Nc1nc2ccccc2c(=O)n1-c1cccc(OC)c1', 'Rattus norvegicus', 0.53),
  ('O=C([O-])Cc1ccccc1Nc1c(Cl)cccc1Cl.[Na+] [DICLOFENAC SODIUM]', 'Rattus norvegicus', 1.65),
  ('COc1cccc(-n2c(N/N=C(\C)c3ccccc3)nc3ccccc3c2=O)c1', 'Rattus norvegicus', 0.62);

Req: Given the compound `CCC(CC)=NNc1nc2ccccc2c(=O)n1-c1cccc(OC)c1` , what is its reported UI?
Resp: 0.51

Req: Given the compound `COc1cccc(-n2c(NN=C3CCCCC3)nc3ccccc3c2=O)c1` , what is its reported UI?
Resp: 0.61

Req: Given the compound `CCC/C(C)=N/Nc1nc2ccccc2c(=O)n1-c1cccc(OC)c1` , what is its reported UI?
Resp: 0.58

* * *

Tested on: Mus musculus
Experiment: […] activity in Mus musculus Wistar albino (mouse) at 10 mg/kg, po after 2 hr by tail-flick test
Type: functional
Property: Activity (%)
Field: numeric (%). Do not append units.

Below are worked cases with known answers.
INSERT INTO measurements (molecule, measured_target, property, reported) VALUES
  ('COc1ccc(/C=N\Nc2nc3ccccc3c(=O)n2-c2cccc(OC)c2)cc1', 'Mus musculus', 'Activity', 41),
  ('COc1cccc(-n2c(N/N=C\c3ccccc3)nc3ccccc3c2=O)c1', 'Mus musculus', 'Activity', 47);

Req: Record `COc1cccc(-n2c(N/N=C\c3ccccc3Cl)nc3ccccc3c2=O)c1` : what is its Activity with Mus musculus?
Resp: 42

Req: Record `COc1cccc(-n2c(N/N=C\c3ccccc3C)nc3ccccc3c2=O)c1` : what is its Activity with Mus musculus?
Resp: 51

Req: Record O=C([O-])Cc1ccccc1Nc1c(Cl)cccc1Cl.[Na+] [DICLOFENAC SODIUM] : what is its Activity with Mus musculus?
Resp: 45

Req: Record `COc1cccc(-n2c(NN=C3CCCCC3)nc3ccccc3c2=O)c1` : what is its Activity with Mus musculus?
Resp: 53

Req: Record `COc1cccc(-n2c(N/N=C\c3ccccc3[N+](=O)[O-])nc3ccccc3c2=O)c1` : what is its Activity with Mus musculus?
Resp: 45

Req: Record `COc1cccc(-n2c(N/N=C(\C)c3ccccc3)nc3ccccc3c2=O)c1` : what is its Activity with Mus musculus?
Resp: 51

* * *

Test system: Mus musculus
Experiment: […] activity in Mus musculus Wistar albino (mouse) at 10 mg/kg, po after 30 min by tail-flick test
Format: functional
Property: Activity
Answer format: value, then unit.

Below are worked cases with known answers.
INSERT INTO assay_data (smiles_str, measured_target, property, reported) VALUES
  ('COc1cccc(-n2c(N/N=C3/C(=O)Nc4ccccc43)nc3ccccc3c2=O)c1', 'Mus musculus', 'Activity', '39%'),
  ('COc1cccc(-n2c(N/N=C\c3ccccc3)nc3ccccc3c2=O)c1', 'Mus musculus', 'Activity', '40%'),
  ('COc1cccc(-n2c(N/N=C\c3ccccc3C)nc3ccccc3c2=O)c1', 'Mus musculus', 'Activity', '39%');

Note: attention shifts to another entry.
Req: Given the compound `COc1cccc(-n2c(NN=C(c3ccccc3)c3ccccc3)nc3ccccc3c2=O)c1` , what is its reported Activity?
Resp: 41%

* * *

Measured Activity of individual entries
Test system: Mus musculus
Experiment: […] activity in Mus musculus Wistar albino (mouse) at 10 mg/kg, po after 2 hr by tail-flick test
Assay type: functional
Field: numeric (%). Do not append units.

INSERT INTO assay_data (smiles_str, reported) VALUES
  ('CCC/C(C)=N/Nc1nc2ccccc2c(=O)n1-c1cccc(OC)c1', 68),
  ('CCC(CC)=NNc1nc2ccccc2c(=O)n1-c1cccc(OC)c1', 66),
  ('CC/C(C)=N/Nc1nc2ccccc2c(=O)n1-c1cccc(OC)c1', 61),
  ('COc1cccc(-n2c(N/N=C\c3ccc([N+](=O)[O-])cc3)nc3ccccc3c2=O)c1', 42),
  ('COc1cccc(-n2c(N/N=C3/C(=O)Nc4ccccc43)nc3ccccc3c2=O)c1', 46),
  ('COc1cccc(-n2c(NN=C(c3ccccc3)c3ccccc3)nc3ccccc3c2=O)c1', 49),
  ('COc1cccc(-n2c(N/N=C\c3ccc(C)cc3)nc3ccccc3c2=O)c1', 50);

Note: attention shifts to another entry.
Req: Given the compound `COc1cccc(-n2c(N/N=C\c3ccc(Cl)cc3)nc3ccccc3c2=O)c1` , what is its reported Activity?
Resp: 42
